# Measured On: Human Polymorphonuclear Leukocyte Elastase (Homo sapiens)
# Construct: Crude extract of human polymorphonuclear leukocytes (PMN) containing elastase activity; from tissue; host or cells: human polymorphonuclear leukocytes (crude extract)
# Sequence (P08246 30-267): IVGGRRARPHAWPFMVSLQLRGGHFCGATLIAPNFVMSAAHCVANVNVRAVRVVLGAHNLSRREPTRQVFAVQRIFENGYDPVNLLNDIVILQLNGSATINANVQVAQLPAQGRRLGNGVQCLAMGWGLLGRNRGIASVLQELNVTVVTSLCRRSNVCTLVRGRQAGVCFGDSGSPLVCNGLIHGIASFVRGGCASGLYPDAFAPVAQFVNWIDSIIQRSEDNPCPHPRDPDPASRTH
# Assay Text: Enzyme assay for inhibition of human polymorphonuclear leukocyte elastase via hydrolysis of Boc-AAPAN or Boc-AAPVN
# Assay type: biochemical
# Condition Label: pH 7.5, second order rate constant for inactivation of the enzyme, expressed to the nearest thousand, read-out: Kobs/[I]
Recorded Endpoint: kinact/KI (M⁻¹ s⁻¹)

These solved cases illustrate the format of a correct answer.
[
  {
    "Compound": "CCCCN(C)C(=O)c1ccc(O[C@@H]2N(C(=O)N[C@H](CCC)c3ccc4c(c3)OCO4)C(=O)C2(CC)CC)cc1 [Compound 262]",
    "Quantity Unit": "M⁻¹ s⁻¹",
    "kinact/KI": "3.12e+06"
  },
  {
    "Compound": "CCC[C@@H](NC(=O)N1C(=O)C(CC)(CC)[C@@H]1Oc1ccc(CC(=O)N2CCOCC2)cc1)c1ccc(C)c(C(=O)N(CCC)CCC)c1 [Compound 294]",
    "Quantity Unit": "M⁻¹ s⁻¹",
    "kinact/KI": 255000
  },
  {
    "Compound": "CCC[C@@H](NC(=O)N1C(=O)C(CC)(CC)[C@@H]1Oc1ccc(C(=O)N(CCN2CCCCC2)Cc2ccccc2)cc1)c1ccc(C)cc1 [Compound 133]",
    "Quantity Unit": "M⁻¹ s⁻¹",
    "kinact/KI": "1.52e+06"
  },
  {
    "Compound": "CCC[C@@H](NC(=O)N1C(=O)C(CC)(CC)[C@@H]1Oc1ccc(C(=O)NCCN2CCCCCC2)cc1)c1ccc(C)cc1 [Compound 121]",
    "Quantity Unit": "M⁻¹ s⁻¹",
    "kinact/KI": "2.07e+06"
  },
  {
    "Compound": "CCC[C@@H](NC(=O)N1C(=O)C(CC)(CC)[C@@H]1Oc1ccc(C(=O)N(C)CCN(CC)CC)cc1)c1ccc(C)cc1 [Compound 81]",
    "Quantity Unit": "M⁻¹ s⁻¹",
    "kinact/KI": "2.19e+06"
  }
]

a: CCC[C@@H](NC(=O)N1C(=O)C(CC)(CC)[C@@H]1Oc1ccc(CC(=O)N2CCOCC2)cc1)c1ccc(C)c(COC(=O)N(CC)CC)c1 [Compound 292]
b: CCC[C@@H](NC(=O)N1C(=O)C(CC)(CC)[C@@H]1Oc1ccc(C(=O)N(C)CCN(C)Cc2ccccc2)cc1)c1ccc(Cl)cc1 [Compound 302]
c: CCC[C@@H](NC(=O)N1C(=O)C(CC)(CC)[C@@H]1Oc1ccc(CC(=O)N(C)c2ccc(C(=O)NS(=O)(=O)c3ccccc3)cc2)cc1)c1ccc(C)cc1 [Compound 72]
// smallest kinact/KI at index 0, largest at the end Form field (ranking): labels in requested order. a, b, c
(a: 807000 M⁻¹ s⁻¹, b: 1.46e+06 M⁻¹ s⁻¹, c: 3.28e+06 M⁻¹ s⁻¹)

I: CCC[C@@H](NC(=O)N1C(=O)C(CC)(CC)[C@@H]1Oc1ccc(C(=O)NCCn2ncnn2)cc1)c1ccc(C)cc1 [Compound 100]
II: CCC[C@@H](NC(=O)N1C(=O)C(CC)(CC)[C@@H]1Oc1cc(C)c(C(=O)OCCN(C)C)c(C)c1)c1ccc(C)cc1 (relative stereo) [Compound 304]
API: POST /compare with I and II ; response names the item with higher kinact/KI. To answer, give the label that identifies your chosen option. I

P: CCC[C@@H](NC(=O)N1C(=O)C(CC)(CC)[C@@H]1Oc1ccc(CC(=O)N(C)c2ccc(C(=O)O)cc2)cc1)c1ccc(C)cc1 [Compound 71]
Q: CCC[C@@H](NC(=O)N1C(=O)C(CC)(CC)[C@@H]1Oc1ccc(C(=O)N2CCc3cc(OC)c(OC)cc3C2)cc1)c1ccc(C)cc1 [Compound 207]
Could you kindly indicate whether P or Q has the higher kinact/KI value? Write down the label of the entry you select. Q
(Q: 2.7e+06 M⁻¹ s⁻¹, P: 1.51e+06 M⁻¹ s⁻¹)

1: CCC[C@@H](NC(=O)N1C(=O)C(CC)(CC)[C@@H]1Oc1ccc(CC(=O)NCCc2ccncc2)cc1)c1ccc(C)cc1 [Compound 46]
2: CCC[C@@H](NC(=O)N1C(=O)C(CC)(CC)[C@@H]1Oc1ccc(C(=O)OCC(=O)NC(CO)(CO)CO)cc1)c1ccc(C)cc1 [Compound 5]
3: CCC[C@@H](NC(=O)N1C(=O)C(CC)(CC)[C@@H]1Oc1ccc(CC(=O)N(C)CC(=O)N(CCO)CCO)cc1)c1ccc(C)cc1 [Compound 52]
List items by kinact/KI in falling order. Please respond by ranking the labels in the order requested. 2, 1, 3

P: CCC[C@@H](NC(=O)N1C(=O)C(CC)(CC)[C@@H]1Oc1ccc(C(=O)OCCN2CCN(C(C)=O)CC2)cc1)c1ccc(C)cc1 [Compound 27]
Q: CCC[C@@H](NC(=O)N1C(=O)C(CC)(CC)[C@@H]1Oc1ccc(C(=O)N(C)CC(C)N(C)C)cc1)c1ccc(C)cc1 (stereo partly drawn) [Compound 219]
Which numeric kinact/KI is bigger, that of P or that of Q ? Which one? Tell me its label. P

1: CCC[C@@H](NC(=O)N1C(=O)C(CC)(CC)[C@@H]1Oc1ccc(C(=O)NCc2ccc(N(C)C)cc2)cc1)c1ccc(C)cc1 [Compound 110]
2: CCC[C@@H](NC(=O)N1C(=O)C(CC)(CC)[C@@H]1Oc1ccc(C(=O)N2CCN(CC(=O)O)CC2)cc1)c1ccc(C)cc1 [Compound 251]
Which record would sort first by descending kinact/KI, 1 or 2 ? Answer format: the label of the selected item. 1
